# Biodistribution of radioactivity, Heart listing for each entry below
Assay text: Ex vivo biodistribution in normal mice
Set-up: species or system ddY mice
Details: i.v., 60 min after injection, mean (SD), 5 animals

Solved entries:
Biodistribution of radioactivity, Heart lookup needed for CN(C)c1ccc(-c2nc3ccc(C4=N[O][99Tc-]5(=[O])([NH]4)[NH2+]C(c4ccc6nc(-c7ccc(N(C)C)cc7)sc6c4)=N[O]5)cc3s2)cc1 [[^99mTc]BT2B] , thanks.
7.08 (1.34) % injected dose per gram

Biodistribution of radioactivity, Heart lookup needed for CN(C)c1ccc(/C=C/c2ccc(C3=N[O][99Tc-]4(=[O])([NH]3)[NH2+]C(c3ccc(/C=C/c5ccc(N(C)C)cc5)cc3)=N[O]4)cc2)cc1 (single isomer, unassigned) [[^99mTc]SB2A] , thanks.
8.27 (1.19) % injected dose per gram

***
Biodistribution of radioactivity, Heart lookup needed for CN(C)c1ccc(/C=C/c2ccc(C3=N[O][99Tc-]4(=[O])([NH]C(c5ccc(N(C)C)cc5)=N[O]4)[NH2+]3)cc2)cc1 (single isomer, unassigned) [[^99mTc]SB1A] , thanks.
4.30 (0.14) % injected dose per gram

Biodistribution of radioactivity, Heart lookup needed for CN(C)c1ccc(C2=N[O][99Tc-]3(=[O])([NH]2)[NH2+]C(c2ccc4nc(-c5ccc(N(C)C)cc5)sc4c2)=N[O]3)cc1 [[^99mTc]BT1B] , thanks.
1.64 (0.32) % injected dose per gram

---

Assay text: Ex vivo biodistribution in normal mice
Design: species or system ddY mice
Details: i.v., 2 min after injection, mean (SD), 5 animals
# Biodistribution of radioactivity, Intestine listing for each entry below

Biodistribution of radioactivity, Intestine lookup needed for CN(C)c1ccc(/C=C/c2ccc(C3=N[O][99Tc-]4(=[O])([NH]C(c5ccc(N(C)C)cc5)=N[O]4)[NH2+]3)cc2)cc1 (single isomer, unassigned) [[^99mTc]SB1A] , thanks.
1.94 (0.25) % injected dose per gram

Biodistribution of radioactivity, Intestine lookup needed for CN(C)c1ccc(C2=N[O][99Tc-]3(=[O])([NH]2)[NH2+]C(c2ccc4nc(-c5ccc(N(C)C)cc5)sc4c2)=N[O]3)cc1 [[^99mTc]BT1B] , thanks.
0.90 (0.25) % injected dose per gram

Biodistribution of radioactivity, Intestine lookup needed for CN(C)c1ccc(/C=C/c2ccc(C3=N[O][99Tc-]4(=[O])([NH]3)[NH2+]C(c3ccc(/C=C/c5ccc(N(C)C)cc5)cc3)=N[O]4)cc2)cc1 (single isomer, unassigned) [[^99mTc]SB2A] , thanks.
1.52 (0.25) % injected dose per gram

# context switch: different molecule, same Biodistribution of radioactivity, Intestine
Biodistribution of radioactivity, Intestine lookup needed for CN(C)c1ccc(-c2nc3ccc(C4=N[O][99Tc-]5(=[O])([NH]4)[NH2+]C(c4ccc6nc(-c7ccc(N(C)C)cc7)sc6c4)=N[O]5)cc3s2)cc1 [[^99mTc]BT2B] , thanks.
1.32 (0.21) % injected dose per gram

---

Assay text: Ex vivo biodistribution in normal mice
Design: species or system ddY mice
Details: i.v., 60 min after injection, mean (SD), 5 animals
Measured quantity: Biodistribution of radioactivity, Stomach

Solved entries:
Biodistribution of radioactivity, Stomach lookup needed for CN(C)c1ccc(/C=C/c2ccc(C3=N[O][99Tc-]4(=[O])([NH]3)[NH2+]C(c3ccc(/C=C/c5ccc(N(C)C)cc5)cc3)=N[O]4)cc2)cc1 (single isomer, unassigned) [[^99mTc]SB2A] , thanks.
14.72 (4.51) % injected dose per organ

Biodistribution of radioactivity, Stomach lookup needed for CN(C)c1ccc(C2=N[O][99Tc-]3(=[O])([NH]2)[NH2+]C(c2ccc4nc(-c5ccc(N(C)C)cc5)sc4c2)=N[O]3)cc1 [[^99mTc]BT1B] , thanks.
6.47 (0.85) % injected dose per organ

***
Biodistribution of radioactivity, Stomach lookup needed for CN(C)c1ccc(-c2nc3ccc(C4=N[O][99Tc-]5(=[O])([NH]4)[NH2+]C(c4ccc6nc(-c7ccc(N(C)C)cc7)sc6c4)=N[O]5)cc3s2)cc1 [[^99mTc]BT2B] , thanks.
4.20 (1.21) % injected dose per organ

Biodistribution of radioactivity, Stomach lookup needed for CN(C)c1ccc(/C=C/c2ccc(C3=N[O][99Tc-]4(=[O])([NH]C(c5ccc(N(C)C)cc5)=N[O]4)[NH2+]3)cc2)cc1 (single isomer, unassigned) [[^99mTc]SB1A] , thanks.
6.63 (1.12) % injected dose per organ
